# Tested on: TK-10 renal
# method_summary: NCI tumour cell line growth inhibition, 48 h; in the data active means GI50 below about 0.43 µM; inactive means the rest
Form entry, call: pick from class 1 = active, class 0 = inactive

# compound, test_system, assigned_class
data = [
    ("Cc1nc(Sc2nc3ccc([N+](=O)[O-])cc3s2)sc1C", "TK-10 renal", "class 0"),
    ("COc1cc(-c2nccc3cc4c(cc23)OCO4)cc(OC)c1OC", "TK-10 renal", "class 0"),
    ("CC1=C(C#N)C(/C=C(\\Cl)c2ccc(F)cc2)C(C#N)=C(C)N1", "TK-10 renal", "class 0"),
    ("COc1ccccc1C1C(C#N)=C(N)Oc2cc(O)ccc21 (stereo not drawn)", "TK-10 renal", "class 0"),
    ("NCCOc1ncccc1/C=C1\\c2ccccc2-c2ccc([N+](=O)[O-])cc21", "TK-10 renal", "class 1"),
    ("Cc1c(C)c2c(c(C)c1OCC(=O)O)CC[C@@](C)(CCC[C@@H](C)CCC[C@@H](C)CCCC(C)C)O2", "TK-10 renal", "class 0"),
    ("COc1ccc2nc3cccc([N+](=O)[O-])c3c(NCCNCCN(C)C)c2c1", "TK-10 renal", "class 0"),
]

Record lookup: outcome of this test for `Cc1cn2c(/C=N/N=C(N)N)c(-c3ccncc3)nc2s1` ?
class 0
